tested on: Sphingomonas 2 (Sphingomonas sp.); assay: relative growth (AUC of 72 h growth curve relative to DMSO control, dAUC) (ratio); higher = more growth (less inhibition), active = hit call of the paper; conditions: 20 µM;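 active = growth AUC significantly below the DMSO wells by Dunnett test; inactive = the rest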
Choose one outcome from this list and give only that: Y = active, N = inactive

Enquiry: Short answer needed: outcome of this test for `N#Cc1c[nH]cc1-c1cccc2c1OC(F)(F)O2` ?
Return: N

Enquiry: Would you mind telling me which call this test gave CC(COc1ccc(Oc2ccccc2)cc1)Oc1ccccn1 (stereo not drawn) ?
Return: N

Enquiry: Assay result, entry `C[N+](C)(C)CCCl` — outcome?
Return: N

Enquiry: // param item: OC(Cn1cncn1)(c1ccc(F)cc1)c1ccccc1F (stereo not drawn) ; yields the recorded call
Return: N

Enquiry: Hi, sorry to bother you, what did the test record for `CCOP(=S)(OCC)Oc1cc(C)nc(C(C)C)n1` ?
Return: N

Enquiry: Dear all, I need the recorded test outcome for CCCSP(=O)(OCC)Oc1ccc(Br)cc1Cl (stereo not drawn) , thank you.
Return: N

Enquiry: Hi, sorry to bother you, what did the test record for `O=C(O)CNCP(=O)(O)O` ?
Return: N

Enquiry: Name the outcome recorded for CCOC(=O)CC(SP(=S)(OC)OC)C(=O)OCC (stereo not drawn) in the assay.
Return: N

Enquiry: Hi, sorry to bother you, what did the test record for `O=[N+]([O-])c1cc(C(F)(F)F)c(Cl)c([N+](=O)[O-])c1Nc1ncc(C(F)(F)F)cc1Cl` ?
Return: Y

Enquiry: Any idea what this test logged for `CCNC(=O)NC(=O)/C(C#N)=N/OC` ?
Return: N

Enquiry: Check the results log: what was the call for O=C1C2CC=CCC2C(=O)N1SC(Cl)(Cl)Cl (stereo not drawn) ?
Return: Y

Enquiry: Can you look up the reported call for `CC(C)OC(=O)Nc1cccc(Cl)c1` for me?
Return: N

Enquiry: What call does the record list for `CC(C)N1C(=O)N(c2ccccc2)CS/C1=N\C(C)(C)C` ?
Return: N

Enquiry: Could you kindly confirm the outcome this assay logged for `COCC(=O)N(c1c(C)cccc1C)[C@H](C)C(=O)OC` ?
Return: N

Enquiry: What call does the record list for `CC1(C)CON(Cc2ccccc2Cl)C1=O` ?
Return: N

Enquiry: Query: recorded result category for `N#Cc1c(Cl)c(Cl)c(Cl)c(C#N)c1Cl` in this test
Return: Y

Enquiry: Which outcome was assigned to `CNC(=O)ON=C(C)SC` in this test?
Return: N

Enquiry: Outcome? `COP(=S)(OC)SCN1C(=O)c2ccccc2C1=O`
Return: N

----------
What relative growth was measured for each of the following?
tested on: Sphingomonas 2 (Sphingomonas sp.); assay: relative growth (AUC of 72 h growth curve relative to DMSO control, dAUC) (ratio); higher = more growth (less inhibition), active = hit call of the paper; details: 20 µM
Kindly provide the number alone.

Enquiry: Consider the molecule `O=C(O)c1nc(Cl)ccc1Cl` . State its measured relative growth.
Return: 0.931

Enquiry: Given the molecule `C#CCN1C(=O)COc2cc(F)c(N3C(=O)C4=C(CCCC4)C3=O)cc21` , write its reported relative growth.
Return: 0.959

Enquiry: Return relative growth for the following molecule: `CC(C)N(C(=O)COc1nnc(C(F)(F)F)s1)c1ccc(F)cc1`
Return: 1.09

----------
system: Aeromonas 3 (Aeromonas popoffii); test: relative growth (AUC of 72 h growth curve relative to DMSO control, dAUC) (ratio); higher = more growth (less inhibition), active = hit call of the paper; conditions: 20 µM
Consider the following compounds; for each one, report its relative growth.
Reply with just the number.

Enquiry: Tell us which relative growth value is on record for `CC(C)N1C(=O)N(c2ccccc2)CS/C1=N\C(C)(C)C`
Return: 1.01

Enquiry: Please look at this compound and report its relative growth: O=C(NC(=O)c1c(F)cccc1F)Nc1ccc(OC(F)(F)C(F)OC(F)(F)F)c(Cl)c1 (stereo not given)
Return: 0.988

Enquiry: Please supply the value of reported relative growth for the item `C[N+](C)(C)CCCl`
Return: 0.977

Enquiry: State its relative growth for this compound: `CC1(C(=O)Nc2ccc(O)c(Cl)c2Cl)CCCCC1`
Return: 0.993

Enquiry: Give a short answer stating reported relative growth for `O=C(Nc1ccccc1-c1ccc(Cl)cc1)c1cccnc1Cl` .
Return: 1.04

Just for reference, the supplement of paper PMC12067926 is where these values come from.
